System: RXF 393
Assay: Antiproliferative activity against human RXF393 cells after 48 hrs
Assay type: functional
Settings: RXF 393, 48 h
reportedEndpoint: log10 of GI50 (log10 of the value in nM)
Log scale reminder: GI50 in nM, then log10 taken.

Some compounds with recorded log10 of GI50:
itemSmiles	recordedMeasurement
CCCCCCCCCCCCCCN[C@H](CO)[C@H](O)c1ccccc1	3.06
CCCCCCCCCCCCCCN[C@H](CO)[C@H](O)c1ccc([N+](=O)[O-])cc1.Cl	3.26
C[C@@H](NC(=O)CCCCCCCCCCCCCCC[n+]1ccccc1)[C@@H](O)c1ccccc1.[Br-]	3.66
CCCCCCCCCCCCCCN[C@@H](CO)Cc1ccccc1	3.23
CCCCCCCCCCCCCCN[C@H](C)[C@@H](O)c1ccccc1.Cl	3.14
CCCCCCCCCCCCCCN[C@@H](C)[C@H](O)c1ccccc1	3.22

Now let's try a different one.
Entry C[C@H](NC(=O)CCCCCCCCCCCCCCC[n+]1ccccc1)[C@H](O)c1ccccc1.[Br-] , RXF 393 data, log10 of GI50 value: 4.08

---

System: OVCAR-8
Test: Antiproliferative activity against human OVCAR8 cells after 48 hrs
Assay type: functional
Conditions: OVCAR-8, 48 h
Hi there, I'd appreciate the recorded GI50 for every entry that follows.
Answers are plain numbers, in nM.

itemSmiles	unitText	recordedMeasurement
CCCCCCCCCCCCCCN[C@H](CO)[C@H](O)c1ccc([N+](=O)[O-])cc1.Cl	nM	2290
C[C@@H](NC(=O)CCCCCCCCCCCCCCC[n+]1ccccc1)[C@@H](O)c1ccccc1.[Br-]	nM	2750
CCCCCCCCCCCCCCN[C@@H](C)[C@H](O)c1ccccc1	nM	1910
CCCCCCCCCCCCCCN[C@H](C)[C@@H](O)c1ccccc1.Cl	nM	1820

For every item in the list below, what is its measured GI50?
1. CCCCCCCCCCCCCCN[C@H](CO)[C@H](O)c1ccccc1
2. CCCCCCCCCCCCCCN[C@@H](CO)Cc1ccccc1
3. C[C@H](NC(=O)CCCCCCCCCCCCCCC[n+]1ccccc1)[C@H](O)c1ccccc1.[Br-]

[out]
1860
1910
3890

---

System: SK-MEL-28
Assay: Antiproliferative activity against human SKMEL28 cells after 48 hrs
Format: functional
Settings: SK-MEL-28, 48 h, read-out: Log TGI (converted)
Please provide measured TGI for the entries that follow.
Answers are plain numbers, in µM.

Record excerpt, results attached:
itemSmiles	recordedMeasurement
CCCCCCCCCCCCCCN[C@@H](CO)Cc1ccccc1	3.47
C[C@H](NC(=O)CCCCCCCCCCCCCCC[n+]1ccccc1)[C@H](O)c1ccccc1.[Br-]	6.03
CCCCCCCCCCCCCCN[C@H](CO)[C@H](O)c1ccccc1	3.24

For every record below, what is its TGI?
1. CCCCCCCCCCCCCCN[C@H](C)[C@@H](O)c1ccccc1.Cl
2. CCCCCCCCCCCCCCN[C@H](CO)[C@H](O)c1ccc([N+](=O)[O-])cc1.Cl
3. CCCCCCCCCCCCCCN[C@@H](C)[C@H](O)c1ccccc1
4. C[C@@H](NC(=O)CCCCCCCCCCCCCCC[n+]1ccccc1)[C@@H](O)c1ccccc1.[Br-]

[out]
[3.24, 3.39, 3.47, 3.16]

---

Hi there, I'd appreciate the recorded GI50 for every entry that follows.
System: 786-0
Experiment: Antiproliferative activity against human 786-0 cells after 48 hrs
Assay type: functional
Settings: 786-0, 48 h
One number for each entry, in nM.

itemSmiles	unitText	GI50
C[C@H](NC(=O)CCCCCCCCCCCCCCC[n+]1ccccc1)[C@H](O)c1ccccc1.[Br-]	nM	10200
CCCCCCCCCCCCCCN[C@H](CO)[C@H](O)c1ccc([N+](=O)[O-])cc1.Cl	nM	1620
CCCCCCCCCCCCCCN[C@H](CO)[C@H](O)c1ccccc1	nM	1620
C[C@@H](NC(=O)CCCCCCCCCCCCCCC[n+]1ccccc1)[C@@H](O)c1ccccc1.[Br-]	nM	2630
CCCCCCCCCCCCCCN[C@@H](CO)Cc1ccccc1	nM	1820

Provide reported GI50 for each item, in the same order as listed.
1. CCCCCCCCCCCCCCN[C@H](C)[C@@H](O)c1ccccc1.Cl
2. CCCCCCCCCCCCCCN[C@@H](C)[C@H](O)c1ccccc1

[out]
1740
1580

---

Test system: SF-268
Experiment: Antiproliferative activity against human SF268 cells after 48 hrs
Assay type: functional
Details: SF-268, 48 h
reportedEndpoint: LC50 (µM)
Give bare numbers, in µM.

itemSmiles	recordedMeasurement
CCCCCCCCCCCCCCN[C@H](C)[C@@H](O)c1ccccc1.Cl	6.76

Lab note: each compound below needs its LC50 filled in.
1. C[C@@H](NC(=O)CCCCCCCCCCCCCCC[n+]1ccccc1)[C@@H](O)c1ccccc1.[Br-]
2. C[C@H](NC(=O)CCCCCCCCCCCCCCC[n+]1ccccc1)[C@H](O)c1ccccc1.[Br-]
3. CCCCCCCCCCCCCCN[C@@H](CO)Cc1ccccc1
4. CCCCCCCCCCCCCCN[C@@H](C)[C@H](O)c1ccccc1

[out]
1. 6.03
2. 43.7
3. 7.08
4. 6.61

---

Tested on: RXF 393
Experiment: Antiproliferative activity against human RXF393 cells after 48 hrs
Format: functional
Settings: RXF 393, 48 h, read-out: Log TGI (converted)
reportedEndpoint: log10 TGI (log10 of the value in µM)
Parameter value (number): base-10 log of TGI in µM.

// worked examples, log10 TGI included
itemSmiles	studySystem	recordedMeasurement
C[C@@H](NC(=O)CCCCCCCCCCCCCCC[n+]1ccccc1)[C@@H](O)c1ccccc1.[Br-]	RXF 393	1.38
CCCCCCCCCCCCCCN[C@H](C)[C@@H](O)c1ccccc1.Cl	RXF 393	0.44
CCCCCCCCCCCCCCN[C@H](CO)[C@H](O)c1ccc([N+](=O)[O-])cc1.Cl	RXF 393	0.59
C[C@H](NC(=O)CCCCCCCCCCCCCCC[n+]1ccccc1)[C@H](O)c1ccccc1.[Br-]	RXF 393	1.47
CCCCCCCCCCCCCCN[C@@H](C)[C@H](O)c1ccccc1	RXF 393	0.50

Go through the list and state log10 TGI for each entry.
1. CCCCCCCCCCCCCCN[C@H](CO)[C@H](O)c1ccccc1
2. CCCCCCCCCCCCCCN[C@@H](CO)Cc1ccccc1

[out]
1: 0.39; 2: 0.54

---

Test system: BT-549
Assay: Antiproliferative activity against human BT549 cells after 48 hrs
Assay type: functional
Conditions: BT-549, 48 h
reportedEndpoint: GI50 (nM)
Numbers only, in nM.

Look over these answered cases.
itemSmiles	recordedMeasurement
CCCCCCCCCCCCCCN[C@@H](C)[C@H](O)c1ccccc1	1510
C[C@@H](NC(=O)CCCCCCCCCCCCCCC[n+]1ccccc1)[C@@H](O)c1ccccc1.[Br-]	69.2
CCCCCCCCCCCCCCN[C@H](C)[C@@H](O)c1ccccc1.Cl	1120

// each listed compound needs a value for GI50
1. CCCCCCCCCCCCCCN[C@H](CO)[C@H](O)c1ccc([N+](=O)[O-])cc1.Cl
2. CCCCCCCCCCCCCCN[C@H](CO)[C@H](O)c1ccccc1

[out]
[1510, 1290]

---

Field: TGI. Provide a value for each of the compounds that follow.
System: NCI-H522
Assay: Antiproliferative activity against human NCI-H522 cells after 48 hrs
Assay type: functional
Details: NCI-H522, 48 h, read-out: Log TGI (converted)
Answers are plain numbers, in µM.

itemSmiles	studySystem	unitText	TGI
C[C@H](NC(=O)CCCCCCCCCCCCCCC[n+]1ccccc1)[C@H](O)c1ccccc1.[Br-]	NCI-H522	µM	13.2
C[C@@H](NC(=O)CCCCCCCCCCCCCCC[n+]1ccccc1)[C@@H](O)c1ccccc1.[Br-]	NCI-H522	µM	3.63
CCCCCCCCCCCCCCN[C@@H](CO)Cc1ccccc1	NCI-H522	µM	3.98

Hello, I would appreciate it if you could give TGI for each entry below.
1. CCCCCCCCCCCCCCN[C@H](CO)[C@H](O)c1ccccc1
2. CCCCCCCCCCCCCCN[C@@H](C)[C@H](O)c1ccccc1
3. CCCCCCCCCCCCCCN[C@H](CO)[C@H](O)c1ccc([N+](=O)[O-])cc1.Cl

[out]
[3.8, 3.89, 3.98]

Item: CCCCCCCCCCCCCCN[C@H](C)[C@@H](O)c1ccccc1.Cl | System: NCI-H522 | TGI: 3.55

---

System: U-251
Test: Antiproliferative activity against human U251 cells after 48 hrs
Format: functional
Conditions: U-251, 48 h, read-out: Log TGI (converted)
reportedEndpoint: TGI (µM)
Answers are plain numbers, in µM.

Answered examples (3):
itemSmiles	reportedEndpoint	recordedMeasurement
CCCCCCCCCCCCCCN[C@H](CO)[C@H](O)c1ccccc1	TGI	3.16
C[C@H](NC(=O)CCCCCCCCCCCCCCC[n+]1ccccc1)[C@H](O)c1ccccc1.[Br-]	TGI	13.8
CCCCCCCCCCCCCCN[C@H](CO)[C@H](O)c1ccc([N+](=O)[O-])cc1.Cl	TGI	3.47

List TGI for every entry below, keeping the order given.
1. CCCCCCCCCCCCCCN[C@@H](CO)Cc1ccccc1
2. C[C@@H](NC(=O)CCCCCCCCCCCCCCC[n+]1ccccc1)[C@@H](O)c1ccccc1.[Br-]
3. CCCCCCCCCCCCCCN[C@H](C)[C@@H](O)c1ccccc1.Cl
4. CCCCCCCCCCCCCCN[C@@H](C)[C@H](O)c1ccccc1

[out]
[3.24, 2.75, 3.31, 3.24]
